tested-system: Estrogen receptor beta (Homo sapiens)
measurement-protocol: Transcriptional efficacy against human estrogen receptor beta at 10e-6 M
Type: functional
# Efficacy >= 90% gives true, anything below gives false

smiles_notation=CCc1c2cc(O)ccc2nn1-c1ccc(O)cc1 label=true
smiles_notation=Oc1ccc(-n2nc3ccc(O)cc3c2Br)cc1 label=false
smiles_notation=Cc1c2cc(O)ccc2nn1-c1ccc(O)cc1 label=false
smiles_notation=N#Cc1c2cc(O)ccc2nn1-c1ccc(O)cc1 label=false

Consider now this further compound.
// query hey, is Efficacy for this one >= 90%? "Oc1ccc(-n2nc3ccc(O)cc3c2-c2ccccc2)cc1"
// result false

---

tested-system: Estrogen receptor (Homo sapiens)
measurement-protocol: Relative binding affinity for human estrogen receptor alpha
Known Relative binding affinity of a selection of compounds
Give the figure by itself; no unit, no explanation.

// worked examples, Relative binding affinity included
smiles_notation=Oc1ccc(-n2nc3ccc(O)cc3c2-c2ccccc2)cc1 number=0.04
smiles_notation=Oc1ccc(-n2nc3c(Cl)c(O)ccc3c2Cl)cc1 number=0.07
smiles_notation=Oc1ccc(-n2cc3ccc(O)c(Br)c3n2)cc1 number=0.02
smiles_notation=Oc1ccc(-n2nc3ccc(O)cc3c2Cl)cc1 number=0.3
smiles_notation=Oc1ccc(-n2cc3cc(O)ccc3n2)cc1 number=0.049

Attention now shifts to the item below.
// query Quick one: give measured Relative binding affinity for "N#Cc1c2cc(O)ccc2nn1-c1ccc(O)cc1"
// result 1.4

---

tested-system: Estrogen receptor beta (Homo sapiens)
measurement-protocol: Transcriptional efficacy against human estrogen receptor beta at 10e-6 M
Format: functional
observation-type: Efficacy
Please state the number and follow it with the unit.

smiles_notation=Oc1ccc(-n2nc3ccc(O)cc3c2I)cc1 observation_type=Efficacy result=58%
smiles_notation=Oc1ccc(-n2nc3ccc(O)cc3c2C(F)(F)F)cc1 observation_type=Efficacy result=74%
smiles_notation=Oc1ccc(-n2cc3ccc(O)cc3n2)cc1 observation_type=Efficacy result=75%

// query Quick one: give measured Efficacy for "Oc1ccc(-n2cc3ccc(O)c(Br)c3n2)cc1"
// result 29%

---

tested-system: Estrogen receptor beta (Homo sapiens) (UniProt Q92731)
Sequence (Q92731 whole entry): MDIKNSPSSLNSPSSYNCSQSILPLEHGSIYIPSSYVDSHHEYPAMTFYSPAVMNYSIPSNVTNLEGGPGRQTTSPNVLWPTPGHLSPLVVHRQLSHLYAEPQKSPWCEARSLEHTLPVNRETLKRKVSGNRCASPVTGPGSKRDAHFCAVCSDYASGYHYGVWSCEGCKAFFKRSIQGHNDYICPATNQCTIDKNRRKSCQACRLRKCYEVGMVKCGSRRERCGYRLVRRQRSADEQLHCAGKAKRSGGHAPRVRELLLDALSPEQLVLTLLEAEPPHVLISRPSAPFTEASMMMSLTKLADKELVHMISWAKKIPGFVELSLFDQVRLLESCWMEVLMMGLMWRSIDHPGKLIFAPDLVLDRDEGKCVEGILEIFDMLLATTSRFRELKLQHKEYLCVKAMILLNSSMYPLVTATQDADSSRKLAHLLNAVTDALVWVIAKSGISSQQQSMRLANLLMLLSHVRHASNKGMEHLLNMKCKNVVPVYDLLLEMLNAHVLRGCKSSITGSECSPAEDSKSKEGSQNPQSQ
measurement-protocol: Transcriptional efficacy against human estrogen receptor beta at 10e-8 M
Format: functional
observation-type: Efficacy (%)
Write down the numeric answer in % and omit the unit.

smiles_notation=Oc1ccc(-n2cc3cc(O)ccc3n2)cc1 number=47
smiles_notation=Oc1ccc(-n2nc3ccc(O)cc3c2Br)cc1 number=66
smiles_notation=Oc1ccc(-n2cc3ccc(O)cc3n2)cc1 number=1.7
smiles_notation=N#Cc1c2cc(O)ccc2nn1-c1ccc(O)cc1 number=82
smiles_notation=Oc1ccc(-n2nc3ccc(O)cc3c2I)cc1 number=85
smiles_notation=CCc1c2cc(O)ccc2nn1-c1ccc(O)cc1 number=63
smiles_notation=Oc1ccc(-n2nc3ccc(O)cc3c2Cl)cc1 number=88
smiles_notation=Oc1ccc(-n2nc3ccc(O)cc3c2C(F)(F)F)cc1 number=78
smiles_notation=Oc1ccc(-n2nc3ccc(O)cc3c2-c2ccccc2)cc1 number=11
smiles_notation=Oc1ccc(-n2cc3ccc(O)c(Br)c3n2)cc1 number=1.4

Attention now shifts to the item below.
// query Quick one: give measured Efficacy for "Cc1c2cc(O)ccc2nn1-c1ccc(O)cc1"
// result 57

---

tested-system: Estrogen receptor (Homo sapiens) (UniProt P03372)
Sequence (P03372 whole entry): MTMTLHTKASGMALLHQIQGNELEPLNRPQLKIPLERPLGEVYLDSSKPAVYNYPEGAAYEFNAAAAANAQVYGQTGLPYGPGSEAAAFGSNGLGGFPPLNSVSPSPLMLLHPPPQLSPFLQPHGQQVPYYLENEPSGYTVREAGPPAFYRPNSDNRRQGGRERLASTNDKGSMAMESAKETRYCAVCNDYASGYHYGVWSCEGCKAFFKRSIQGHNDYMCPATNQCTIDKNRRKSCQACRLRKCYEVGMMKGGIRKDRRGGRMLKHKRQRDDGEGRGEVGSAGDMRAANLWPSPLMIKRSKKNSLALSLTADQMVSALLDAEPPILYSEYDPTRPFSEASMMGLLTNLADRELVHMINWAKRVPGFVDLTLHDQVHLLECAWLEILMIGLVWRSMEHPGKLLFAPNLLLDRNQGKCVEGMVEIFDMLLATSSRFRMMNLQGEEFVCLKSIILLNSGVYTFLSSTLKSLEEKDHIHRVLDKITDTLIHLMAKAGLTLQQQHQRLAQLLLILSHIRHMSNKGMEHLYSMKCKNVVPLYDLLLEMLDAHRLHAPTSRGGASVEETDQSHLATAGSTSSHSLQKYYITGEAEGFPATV
measurement-protocol: Relative binding affinity for human estrogen receptor alpha
Known Relative binding affinity of a selection of compounds
Give the figure by itself; no unit, no explanation.

smiles_notation=Cc1c2cc(O)ccc2nn1-c1ccc(O)cc1 number=0.03

// query Quick one: give measured Relative binding affinity for "CC(C)c1c2cc(O)ccc2nn1-c1ccc(O)cc1"
// result 0.14

// query Quick one: give measured Relative binding affinity for "Oc1ccc(-n2nc3ccc(O)cc3c2I)cc1"
// result 0.17

// query Quick one: give measured Relative binding affinity for "Oc1ccc2nn(-c3ccccc3)c(Cl)c2c1"
// result 0.014

// query Quick one: give measured Relative binding affinity for "Oc1ccc(-n2cc3ccccc3n2)cc1"
// result 0.02

// query Quick one: give measured Relative binding affinity for "CCc1c2cc(O)ccc2nn1-c1ccc(O)cc1"
// result 0.08
